PROTOCOL: Pharmacokinetic study in mouse plasma
Format: in vivo
STATED CONDITIONS: iv, i.v. 10 mg/kg
QUANTITY NAME: AUC(0-t)

>>> print(df.to_string())
                                 smiles_str  quantity_name       reading
0  COc1cc(/C(C)=C2\SC(=S)N(CC(=O)N(C)C)C2=O)cc(F)c1OCc1nnc[nH]1       AUC(0-t)  4570 ng·h/mL

====

PROTOCOL: Pharmacokinetic study in mouse plasma
Type: in vivo
STATED CONDITIONS: po; p.o. 50 mg/kg, mouse plasma
QUANTITY NAME: AUC(0-inf)

In [3]: df
Out[3]:
                                   compound        reading
0  COc1cc(/C(C)=C2\SC(=S)N(CC(=O)N(C)C)C2=O)cc(F)c1OCc1nnc[nH]1 [NADi-351]  38000 ng·h/mL

====

SYSTEM NAME: Notch transcriptional activation complex (NTC) (Homo sapiens, UniProt P46531+Q06330)
Construct: made in house; host or cells: SF21 insect cells (baculovirus)
Sequence (P46531 1754-2555 limits assumed): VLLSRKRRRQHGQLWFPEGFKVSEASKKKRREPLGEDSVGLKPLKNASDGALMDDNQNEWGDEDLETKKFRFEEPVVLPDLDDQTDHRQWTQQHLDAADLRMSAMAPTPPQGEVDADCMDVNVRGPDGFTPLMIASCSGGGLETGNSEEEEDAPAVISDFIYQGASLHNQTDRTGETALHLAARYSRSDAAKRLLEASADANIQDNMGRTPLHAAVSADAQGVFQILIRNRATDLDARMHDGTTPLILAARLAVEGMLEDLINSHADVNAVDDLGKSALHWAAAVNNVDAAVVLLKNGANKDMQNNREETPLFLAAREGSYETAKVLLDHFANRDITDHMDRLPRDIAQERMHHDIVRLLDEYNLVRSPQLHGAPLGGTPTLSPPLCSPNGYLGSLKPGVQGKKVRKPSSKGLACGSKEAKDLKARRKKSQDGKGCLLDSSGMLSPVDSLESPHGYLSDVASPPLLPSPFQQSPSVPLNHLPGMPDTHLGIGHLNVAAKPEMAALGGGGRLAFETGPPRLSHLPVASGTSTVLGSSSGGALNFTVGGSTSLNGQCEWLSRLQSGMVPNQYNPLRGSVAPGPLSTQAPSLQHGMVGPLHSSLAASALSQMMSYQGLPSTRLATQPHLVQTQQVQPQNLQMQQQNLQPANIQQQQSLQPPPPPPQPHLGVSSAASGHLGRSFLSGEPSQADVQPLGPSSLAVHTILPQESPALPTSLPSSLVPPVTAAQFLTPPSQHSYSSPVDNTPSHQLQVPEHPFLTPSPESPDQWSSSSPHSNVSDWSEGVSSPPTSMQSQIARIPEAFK
Sequence (Q06330 whole entry): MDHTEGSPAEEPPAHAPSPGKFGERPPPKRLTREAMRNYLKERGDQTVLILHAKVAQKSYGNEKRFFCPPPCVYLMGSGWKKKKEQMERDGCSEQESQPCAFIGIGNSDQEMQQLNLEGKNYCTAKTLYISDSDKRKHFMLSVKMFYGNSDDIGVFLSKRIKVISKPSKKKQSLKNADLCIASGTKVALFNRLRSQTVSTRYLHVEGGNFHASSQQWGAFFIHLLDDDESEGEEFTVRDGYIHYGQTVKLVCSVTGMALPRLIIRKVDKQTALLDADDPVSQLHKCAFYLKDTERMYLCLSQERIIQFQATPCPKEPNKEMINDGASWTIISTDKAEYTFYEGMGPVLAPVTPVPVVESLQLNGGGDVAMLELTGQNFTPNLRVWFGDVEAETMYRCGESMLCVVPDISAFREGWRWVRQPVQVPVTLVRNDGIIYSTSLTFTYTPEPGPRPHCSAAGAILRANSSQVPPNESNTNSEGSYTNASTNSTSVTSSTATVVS
PROTOCOL: Notch complex assembly assay (NTC AlphaScreen assay)
Format: binding
STATED CONDITIONS: Table E; NTC AlphaScreen assay; read-out: *IC50
Measured IC50 values are reported for all entries that follow.
QUANTITY NAME: IC50 (µM)

>>> print(df.to_string())
                                 smiles_str  reading
0  CCOC(=O)COc1c(F)cc(/C=C2\SC(=S)N(CC(=O)N(C)C)C2=O)cc1OC     0.06
1  COc1cc(/C=C2\SC(=S)N(CC(=O)N(C)C)C2=O)cc(F)c1OCc1nc[nH]n1     0.02
2  COc1cc(/C(C)=C2\SC(=S)N(CC(=O)N(C)C)C2=O)cc(F)c1OCc1nnc[nH]1   0.0024

====

PROTOCOL: Aqueous solubility in SGF, FaSSIF and PBS
STATED CONDITIONS: pH 6.5, fassif
QUANTITY NAME: solubility (µM)

>>> print(df.to_string())
                       smiles_str  reading
0  O=C(O)CCCc1ccc(N(CCCl)CCCl)cc1     68.9

====

PROTOCOL: Pharmacokinetic study in mouse plasma
Assay type: in vivo
STATED CONDITIONS: iv; NADi-260 i.v. 2 mg/kg, mouse plasma; initial three time points only
Measured AUC(0-inf) values are reported for all entries that follow.
QUANTITY NAME: AUC(0-inf) (ng·h/mL)

In [3]: df
Out[3]:
                                   molecule  quantity_name  unit_annotation  reading
0  COc1cc(CC2SC(=S)N(CC(=O)N(C)C)C2=O)cc(F)c1OCc1nnc[nH]1 (centres unmarked) [PM7]     AUC(0-inf)          ng·h/mL      310
1  COc1cc(/C=C2\SC(=S)N(CC(=O)N(C)C)C2=O)cc(F)c1OCc1nc[nH]n1 [NADi-260]     AUC(0-inf)          ng·h/mL       78

====

PROTOCOL: Pharmacokinetic study in mouse plasma
Assay type: in vivo
STATED CONDITIONS: ip; NADi-260 i.p. 100 mg/kg, mouse plasma
QUANTITY NAME: AUC(0-t) (ng·h/mL)

>>> df
                                   compound  unit_annotation  reading
0  COc1cc(CC2SC(=S)N(CC(=O)N(C)C)C2=O)cc(F)c1OCc1nnc[nH]1 (stereo not drawn)          ng·h/mL    18800
1  COc1cc(/C=C2\SC(=S)N(CC(=O)N(C)C)C2=O)cc(F)c1OCc1nc[nH]n1          ng·h/mL     5320
2  COc1cc(/C=C2\SC(=S)N(CC(=O)N(C)C)C2=O)cc(F)c1O          ng·h/mL       21

====

PROTOCOL: Pharmacokinetic study in mouse plasma
Type: in vivo
STATED CONDITIONS: iv; NADi-260 i.v. 2 mg/kg, mouse plasma; cell says NR, value in footnote
QUANTITY NAME: clearance (mL/min/kg)

>>> df
                                   compound  reading
0  COc1cc(/C=C2\SC(=S)N(CC(=O)N(C)C)C2=O)cc(F)c1OCc1nc[nH]n1 [NADi-260]      429

====

PROTOCOL: Pharmacokinetic study in mouse plasma
Assay type: in vivo
STATED CONDITIONS: iv; i.v. 10 mg/kg, mouse plasma
QUANTITY NAME: AUC(0-inf) (ng·h/mL)

>>> print(df.to_string())
                                   compound  quantity_name  reading
0  COc1cc(/C(C)=C2\SC(=S)N(CC(=O)N(C)C)C2=O)cc(F)c1OCc1nnc[nH]1 [NADi-351]     AUC(0-inf)     4570

====

PROTOCOL: Pharmacokinetic study in mouse plasma
Type: in vivo
STATED CONDITIONS: po; p.o. 50 mg/kg, mouse plasma; read-out: *C0/Cmax
QUANTITY NAME: Cmax (ng/mL)

>>> print(df.to_string())
                                 smiles_str  quantity_name  reading
0  COc1cc(/C(C)=C2\SC(=S)N(CC(=O)N(C)C)C2=O)cc(F)c1OCc1nnc[nH]1           Cmax    17500

====

PROTOCOL: physchem
STATED CONDITIONS: pH 7.4, aqueous buffer
QUANTITY NAME: solubility (µM)

In [3]: df
Out[3]:
                                   compound  quantity_name  value_modifier  reading
0  CC/C(=C(/CC)c1ccc(O)cc1)c1ccc(O)cc1 [DES, diethylstilbestrol, reference compound]     solubility               <        5
1  COc1cc(/C(C)=C2\SC(=S)N(CC(=O)N(C)C)C2=O)cc(F)c1OCc1nnc[nH]1     solubility               =      155

====

SYSTEM NAME: Notch transcriptional activation complex (NTC) (Homo sapiens, UniProt P46531+Q06330)
Construct: made in house; host or cells: SF21 insect cells (baculovirus)
PROTOCOL: Notch complex assembly assay (NTC AlphaScreen assay)
Assay type: binding
STATED CONDITIONS: Table C; NTC AlphaScreen assay
QUANTITY NAME: *IC50 (μM)

>>> print(df.to_string())
                                 smiles_str  quantity_name   reading
0  COc1cc(/C=C2\SC(=S)N(CC(=O)N(C)C)C2=O)cc(F)c1OCc1ncco1     *IC50 (μM)  Inactive
1  COc1cc(/C=C2\SC(=S)N(CC(=O)N(C)C)C2=O)cc(F)c1OCc1nnc(C)o1     *IC50 (μM)  Inactive
2  CCc1noc(COc2c(F)cc(/C=C3\SC(=S)N(CC(=O)N(C)C)C3=O)cc2OC)n1     *IC50 (μM)  Inactive

====

PROTOCOL: Pharmacokinetic study in mouse plasma
Assay type: in vivo
STATED CONDITIONS: po; p.o. 50 mg/kg, mouse plasma
QUANTITY NAME: Tmax (min)

In [3]: df
Out[3]:
                                 smiles_str  unit_annotation  reading
0  COc1cc(/C(C)=C2\SC(=S)N(CC(=O)N(C)C)C2=O)cc(F)c1OCc1nnc[nH]1              min       30

====

PROTOCOL: Pharmacokinetic study in mouse plasma
Assay type: in vivo
STATED CONDITIONS: po; p.o. 50 mg/kg, mouse plasma
QUANTITY NAME: AUC(0-t) (ng·h/mL)

>>> df
                                 smiles_str  quantity_name  reading
0  COc1cc(/C(C)=C2\SC(=S)N(CC(=O)N(C)C)C2=O)cc(F)c1OCc1nnc[nH]1       AUC(0-t)    37900

====

PROTOCOL: Pharmacokinetic study in mouse plasma
Format: in vivo
STATED CONDITIONS: ip; i.p. 10 mg/kg, mouse plasma
QUANTITY NAME: Tmax (min)

>>> df
                                 smiles_str  reading
0  COc1cc(/C(C)=C2\SC(=S)N(CC(=O)N(C)C)C2=O)cc(F)c1OCc1nnc[nH]1       15

====

PROTOCOL: physchem
STATED CONDITIONS: pH 6.5, fassif
QUANTITY NAME: solubility (µM)

>>> print(df.to_string())
                                   compound  quantity_name  reading
0  COc1ccc2[nH]c([S+]([O-])Cc3ncc(C)c(OC)c3C)nc2c1 (centres unmarked) [Omeprazole, omeprazole, reference compound]     solubility      174
1  COc1cc(/C(C)=C2\SC(=S)N(CC(=O)N(C)C)C2=O)cc(F)c1OCc1nnc[nH]1     solubility      150

Values compiled from patent US12275725B2.
